target: PIK3CA (human) (UniProt P42336)
Sequence (P42336 whole entry, looked up): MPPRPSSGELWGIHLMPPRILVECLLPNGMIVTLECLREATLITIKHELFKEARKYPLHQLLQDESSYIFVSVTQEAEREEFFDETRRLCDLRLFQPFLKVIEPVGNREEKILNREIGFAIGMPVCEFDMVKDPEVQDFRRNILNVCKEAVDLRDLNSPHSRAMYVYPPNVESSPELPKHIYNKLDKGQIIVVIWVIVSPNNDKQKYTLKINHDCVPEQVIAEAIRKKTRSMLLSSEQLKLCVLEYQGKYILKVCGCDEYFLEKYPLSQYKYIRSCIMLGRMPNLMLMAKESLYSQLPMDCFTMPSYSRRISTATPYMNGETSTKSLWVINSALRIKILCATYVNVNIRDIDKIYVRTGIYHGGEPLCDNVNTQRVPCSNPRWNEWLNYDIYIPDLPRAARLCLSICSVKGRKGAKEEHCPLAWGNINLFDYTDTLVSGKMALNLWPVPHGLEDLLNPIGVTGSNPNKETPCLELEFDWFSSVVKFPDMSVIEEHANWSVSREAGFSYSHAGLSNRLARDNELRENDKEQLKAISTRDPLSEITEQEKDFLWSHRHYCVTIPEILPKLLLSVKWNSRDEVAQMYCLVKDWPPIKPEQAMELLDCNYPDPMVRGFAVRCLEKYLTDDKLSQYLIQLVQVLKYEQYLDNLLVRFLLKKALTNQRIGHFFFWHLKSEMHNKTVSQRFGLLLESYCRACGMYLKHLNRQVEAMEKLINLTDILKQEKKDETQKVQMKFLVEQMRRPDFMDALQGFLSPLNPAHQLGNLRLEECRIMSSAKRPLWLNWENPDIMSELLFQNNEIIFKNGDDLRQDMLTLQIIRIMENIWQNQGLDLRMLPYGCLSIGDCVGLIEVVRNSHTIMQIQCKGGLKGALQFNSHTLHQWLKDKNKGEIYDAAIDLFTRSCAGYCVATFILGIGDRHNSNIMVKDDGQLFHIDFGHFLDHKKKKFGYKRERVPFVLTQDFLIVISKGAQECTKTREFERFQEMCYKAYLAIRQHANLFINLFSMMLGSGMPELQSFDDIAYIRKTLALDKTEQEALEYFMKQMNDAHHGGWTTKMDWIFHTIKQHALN
test readout: IC50 (nM)
Response body: numeric value in nM, unit text excluded.

Study these solved cases before continuing.
Nc1ncc(-c2cnc3sc(N4CCC(N)C4)nn23)cc1C(F)(F)F (stereo not given) : 1000
COC(=O)C1CCN(c2nn3c(-c4cnc(N)c(C(F)(F)F)c4)cnc3s2)CC1 : 297
Nc1ncc(-c2c(Cl)nc3sc(N[C@H]4CC[C@H](N)CC4)nn23)cc1C(F)(F)F : 109
CS(=O)(=O)NCCNc1nn2c(-c3cnc(N)c(C(F)(F)F)c3)cnc2s1 : 269

Moving on to the next compound.
INPUT: Could you please provide reported IC50 for CNC(=O)C1CCCN(c2nn3c(-c4cnc(N)c(C(F)(F)F)c4)cnc3s2)C1 (stereo not given) ? Thanks!
OUTPUT: 213

----------
biological target: PIK3CA (human)
test readout: pIC50
API: returns pIC50 as number; meaning -log10 of concentration in mol/L.

CC(C)(C)OC(=O)N[C@H]1CC[C@H](Nc2nn3c(-c4cnc(N)c(C(F)(F)F)c4)cnc3s2)CC1 : 7.92
CC(C)(C)OC(=O)N1CCN(CCNc2nn3c(-c4cnc(N)c(C(F)(F)F)c4)cnc3s2)CC1 : 7.07

INPUT: Given `CCNC(=O)N[C@H]1CC[C@@H](Nc2nn3c(-c4cnc(N)c(C(F)(F)F)c4)cnc3s2)CC1` , report its pIC50 on PIK3CA (human).
OUTPUT: 7.20

----------
target: PIK3CA (human); test: Assessment of PIK3CA Kinase Activity
pIC50: −log10 of the molar value.
test readout: pIC50

Study these solved cases before continuing.
Nc1ncc(-c2cnc3sc(N4CCC(C(=O)O)CC4)nn23)cc1C(F)(F)F : 6.00 to 7.30
CCNC(=O)N[C@H]1CC[C@H](Nc2nn3c(-c4cnc(N)c(C(F)(F)F)c4)c(Cl)nc3s2)CC1 : 7.30 to 9.00
CC(=O)N[C@H]1CC[C@H](Nc2nn3c(-c4cnc(N)c(C(F)(F)F)c4)cnc3s2)CC1 : 6.00 to 7.30
CS(=O)(=O)NCC1CCCN(c2nn3c(-c4cnc(N)c(C(F)(F)F)c4)cnc3s2)C1 (centres undefined) : 6.99
Nc1ncc(-c2cnc3sc(NC4CCNCC4)nn23)cc1C(F)(F)F : 7.17
NCC1CCN(c2nn3c(-c4cnc(N)c(C(F)(F)F)c4)cnc3s2)CC1 : 6.00 to 7.30
COc1cncc(-c2cnc3sc(NCCCNS(C)(=O)=O)nn23)c1 : 6.00 to 7.30
NCCNc1nn2c(-c3cnc(N)c(C(F)(F)F)c3)cnc2s1 : 6.00 to 7.30

INPUT: Could you please provide reported pIC50 for `CC(C)(C)OC(=O)N1CCC2(CC1)CCN(c1nn3c(-c4cnc(N)c(C(F)(F)F)c4)cnc3s1)CC2` ? Thanks!
OUTPUT: 5.80

----------
biological target: PIK3CA (human); test: Assessment of PIK3CA Kinase Activity
test readout: pIC50
API: returns pIC50 as number; meaning -log10 of concentration in mol/L.

Study these solved cases before continuing.
Nc1ncc(-c2cnc3sc(NC4CCC5(CC4)OCCO5)nn23)cc1C(F)(F)F : 7.47
CS(=O)(=O)N1CCN2CCN(c3nn4c(-c5cnc(N)c(C(F)(F)F)c5)cnc4s3)CC2C1 (centres undefined) : 7.03
CS(=O)(=O)N1CCC(Nc2nn3c(-c4cnc(N)c(C(F)(F)F)c4)cnc3s2)CC1 : 7.92
Nc1ncc(-c2cnc3sc(NC4CCN(S(=O)(=O)C5CNC5)CC4)nn23)cc1C(F)(F)F : 7.85
CCNC(=O)N[C@H]1CC[C@H](Nc2nn3c(-c4cnc(N)c(C(F)(F)F)c4)cnc3s2)CC1 : 8.30

Moving on to the next compound.
INPUT: Could you please provide reported pIC50 for `Nc1ncc(-c2c(Cl)nc3sc(N[C@H]4CC[C@H](NS(=O)(=O)c5ccc(F)cc5F)CC4)nn23)cc1C(F)(F)F` ? Thanks!
OUTPUT: 5.77

These entries and their values trace back to the Kinase Knowledgebase extract (Sharma et al. 2016).
